Target: T1, His-tagged ILT4 protein extracellular domain: ILT4-His (human, UniProt Q8N423 22-460)
T1 construct: Expressed in 293 cells; also called human ILT4-His protein
T1 sequence (Q8N423 other isoform, or with tags, fused parts or gaps limits assumed): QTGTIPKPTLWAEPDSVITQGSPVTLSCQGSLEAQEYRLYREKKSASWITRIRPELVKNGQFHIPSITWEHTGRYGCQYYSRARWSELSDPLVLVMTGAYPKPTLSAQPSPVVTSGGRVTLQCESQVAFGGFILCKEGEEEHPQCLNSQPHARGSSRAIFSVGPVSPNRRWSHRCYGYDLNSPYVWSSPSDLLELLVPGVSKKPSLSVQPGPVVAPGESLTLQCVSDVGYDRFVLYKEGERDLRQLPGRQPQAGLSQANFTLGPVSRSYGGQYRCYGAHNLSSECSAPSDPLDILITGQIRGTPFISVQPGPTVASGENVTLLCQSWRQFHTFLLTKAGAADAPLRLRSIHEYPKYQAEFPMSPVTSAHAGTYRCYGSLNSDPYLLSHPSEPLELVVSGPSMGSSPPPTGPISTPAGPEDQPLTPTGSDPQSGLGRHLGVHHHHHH
Assay: SPR (Biacore), antibody captured on Protein A chip, ILT4-His as analyte, 1:1 model
property.name: Kd (pM)
Response body: numeric value in pM, unit text excluded.

[[record]]
binder = "humanized antibody huP1-G7 (antibody, human IgG4 S228P, kappa, F234A L235A, V domains shown, Full chains; also called P1-G7H1L1) VH: EVQLQESGPGLVKPSQTLSLTCTVSGYSITSGYYWNWIRQHPGKGLEWIGYISYDGGNNYNPFLKNRVTISRDTSKNQFSLKLSSVTAADTAVYYCAREGGSSWEYYGMDYWGQGTTVTVSS VL: DIQMTQSPSSLSASVGDRVTITCRASENIYRNLAWYQQKPGKAPKLLLYAATNLADGVPSRFSGSGSGTDFTLTISSLQPEDFATYYCQQFWGSPYTFGGGTKVEIKR"
result = 158

[[record]]
binder = "positive control antibody MK (sequences from WO2018187518A1) (antibody, human IgG4 S228P, lambda, V domains shown) VH: EVQLQQWGAGLLKPSETLSLTCAVYGGSFSGYYWSWIRQPPGKGLEWIGEINHAGSTNYNPSLKSRVTISVDTSKNQFSLKLSSVTAADTAVYYCARLPTRWVTTRYFDLWGRGTLVTVSS VL: ESVLTQPPSVSGAPGQRVTISCTGSSSNIGAGYDVHWYQQLPGTAPKLLIYGDSNRPSGVPDRFSVSKSGASASLAITGLQAEDEADYYCQSFDNSLSAYVFGGGTQLTVLG"
result = 19100

[[record]]
binder = "fully human-derived antibody P2m (antibody, human IgG1, kappa, L234A L235A, V domains shown, Full chains) VH: QVQLVQSGAEVKKPGSSVKVSCKASGYTFTSYDISWVRQAPGQGLEWMGGIIPIFGTANYAQKFQGRVTITADESTSTAYMELSSLRSEDTAVYYCTAGIFLATAYWGQGTLVTVSS VL: DIQMTQSPSSMSASVGDRVTISCQASQDIQNYLNWYQQRPGQAPKLLIYDASTLETGVPSRFSGSGSGTYFTLTISSLQPEDVATYYCQQYENVPITFGQGTRLEIKR"
result = 43.3

[[record]]
binder = "humanized antibody huP2-C6 (antibody, human IgG1, kappa, L234A L235A, V domains shown, Full chains; also called P2-C6H7L1) VH: EVQLVQSGAEVKKPGASVKVSCKASGYTFTDYYIHWVRQAPGQGLEWMGYIYPDTGYSGYNQKFKGRVTMTVDKSTSTAYMELRSLRSDDTAVYYCTRRGDYSGVHFDYWGQGTTVTVSS VL: DIVLTQSPDSLAVSLGERATINCRASESVNNYGVGFLHWYQQKPGQPPKLLIYRASTLESGIPDRFSGSGSGTDFTLTISSLQAEDVAVYYCQHSYKDPPWTFGGGTKVEIKR"
result = 54.3


Consider the record given below.
[in] Give Kd for humanized antibody huP2-G9 (antibody, human IgG1, kappa, L234A L235A, V domains shown, Full chains; also called P2-G9H1L2) VH: EVQLQESGPGLVKPSQTLSLTCTVSGSSITSGYYWNWIRQHPGKGLEWIGYLSYDGSNNYNPSLKNLVTISRDTSKNQFSLKLSSVTAADTAVYYCAREGAHYSGTLSWFAYWGQGTLVTVSS VL: DIQMTQSPSSLSASVGDRVTITCRASENIYSNLAWYQQKPGKSPKLLVYAATNLADGVPSRFSGSGSGTDYTLTISSLQPEDFATYYCQHFWDTPYTFGGGTKVEIKR
[out] 109
